Entry source: the supplement of paper PMC10567573

B1: PPEF2 (parent)
chain: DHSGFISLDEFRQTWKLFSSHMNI

- Variants of: B1
- EXPERIMENT_SUMMARY: protein stability index of a GFP-peptide fusion (GPS, HEK-293T) (PSI 1-6); higher = more stable;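 further: lentivirally expressed fusions sorted by FACS into six bins by GFP to DsRed ratio, PSI derived from sequencing read proportions per bin multiplied by bin number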
- CONDITION_CONTEXT: c terminus: a fixed tail appended

[
  {
    "VARIANT_DESIGNATION": "I6G",
    "protein stability index": 1.28
  },
  {
    "VARIANT_DESIGNATION": "E10W",
    "protein stability index": 1.87
  },
  {
    "VARIANT_DESIGNATION": "D9R",
    "protein stability index": 1.92
  },
  {
    "VARIANT_DESIGNATION": "L17M",
    "protein stability index": 2.63
  },
  {
    "VARIANT_DESIGNATION": "S7G",
    "protein stability index": 2.95
  },
  {
    "VARIANT_DESIGNATION": "D9C",
    "protein stability index": 2.73
  },
  {
    "VARIANT_DESIGNATION": "M22R",
    "protein stability index": 1.91
  },
  {
    "VARIANT_DESIGNATION": "E10Y",
    "protein stability index": 1.82
  },
  {
    "VARIANT_DESIGNATION": "S7H",
    "protein stability index": 1.83
  },
  {
    "VARIANT_DESIGNATION": "K16W",
    "protein stability index": 3.62
  },
  {
    "VARIANT_DESIGNATION": "S19C",
    "protein stability index": 1.54
  },
  {
    "VARIANT_DESIGNATION": "W15C",
    "protein stability index": 2.39
  },
  {
    "VARIANT_DESIGNATION": "N23I",
    "protein stability index": 2.18
  },
  {
    "VARIANT_DESIGNATION": "F18G",
    "protein stability index": 2.48
  },
  {
    "VARIANT_DESIGNATION": "S19M",
    "protein stability index": 1.78
  },
  {
    "VARIANT_DESIGNATION": "H2D",
    "protein stability index": 1.86
  },
  {
    "VARIANT_DESIGNATION": "S7M",
    "protein stability index": 2.3
  },
  {
    "VARIANT_DESIGNATION": "T14P",
    "protein stability index": 2.17
  },
  {
    "VARIANT_DESIGNATION": "H2L",
    "protein stability index": 1.25
  },
  {
    "VARIANT_DESIGNATION": "F18K",
    "protein stability index": 2.21
  },
  {
    "VARIANT_DESIGNATION": "G4M",
    "protein stability index": 1.65
  },
  {
    "VARIANT_DESIGNATION": "R12V",
    "protein stability index": 2.88
  }
]
